target: T1, rat SNAP-tagged mGlu2 receptor (wild-type rat mGlu2 subunit with an HA-tag and a SNAP inserted just after the … (rat, UniProt P31421 19-872, SNAP tag labelled with SNAP-Lumi4-Tb in the TR-FRET binding assay)); assay: TR-FRET saturation binding on HEK293 cells with Lumi4-Tb-labelled rat SNAP-mGlu2, anti-6His-d2; active conformation (1 uM LY379268)
T1 construct: whole, on cells; Transiently transfected HEK293 cells; also called SNAP-mGlu2; mGluR2; not shown: HA-tag inserted just after the signal peptide; SNAP tag inserted just after the signal peptide
T1 sequence (P31421 19-872): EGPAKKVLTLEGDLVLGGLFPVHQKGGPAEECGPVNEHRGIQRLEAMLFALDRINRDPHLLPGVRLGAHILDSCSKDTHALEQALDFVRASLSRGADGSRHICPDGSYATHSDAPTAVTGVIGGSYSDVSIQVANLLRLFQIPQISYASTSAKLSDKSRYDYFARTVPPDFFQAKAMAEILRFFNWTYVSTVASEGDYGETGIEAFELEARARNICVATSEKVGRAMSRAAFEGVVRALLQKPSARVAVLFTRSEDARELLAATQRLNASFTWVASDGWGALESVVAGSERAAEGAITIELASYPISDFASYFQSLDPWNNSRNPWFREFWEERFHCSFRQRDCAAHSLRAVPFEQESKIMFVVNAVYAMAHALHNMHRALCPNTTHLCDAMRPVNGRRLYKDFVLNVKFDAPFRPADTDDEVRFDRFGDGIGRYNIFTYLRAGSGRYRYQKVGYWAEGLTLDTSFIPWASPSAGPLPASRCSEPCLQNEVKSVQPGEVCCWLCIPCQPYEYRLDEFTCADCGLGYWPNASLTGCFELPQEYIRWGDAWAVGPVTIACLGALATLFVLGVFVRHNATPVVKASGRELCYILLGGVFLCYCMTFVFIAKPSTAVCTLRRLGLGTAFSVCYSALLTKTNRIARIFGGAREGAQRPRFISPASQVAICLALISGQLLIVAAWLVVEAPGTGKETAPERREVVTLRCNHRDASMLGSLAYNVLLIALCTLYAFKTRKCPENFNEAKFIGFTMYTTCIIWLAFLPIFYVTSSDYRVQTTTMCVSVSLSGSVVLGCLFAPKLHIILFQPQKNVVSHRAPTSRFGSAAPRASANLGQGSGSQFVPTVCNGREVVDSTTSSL
Parameter: pKd. Scope: all listed entries.

{"Binder": "IGF-1262 (IGF-1168 HcAb IGF-1168) (VHH) QVQLVQSGGGLVQAGGSLRLSCAASVRFFSINTMGWYRQAPGKQRELVADITSSGSTNYADSGKGRFTISRDNAKNTVYLQMNRLKPEDTAVYYCHADYKYTTHNTAWGQGTQVTVSSEPKIPQPQPKPQPQPQPQPQPKPQPKPEPQVQLVQSGGGLVQAGGSLRLSCAASVRFFSINTMGWYRQAPGKQRELVADITSSGSTNYADSGKGRFTISRDNAKNTVYLQMNRLKPEDTAVYYCHADYKYTTHNTAWGQGTQVTVSSLEHHHHHH", "pKd": "8.23 -log10 M"}

# evaluate next
Ask: Endpoint output: pKd of IGF-1251 (IGF-1159 GS IGF-1168) (VHH, Bivalent biparatopic nanobody, two VHH in tandem) QVQLVQSGGGLVQAGGSLRLSCAASGRTFSSFAMAWFRQAPGKEREFVAAISWSGSTGHADSVKGRFTITRDNAKNTVFLQMNSLKPEDTAVYYCALGKGSSYYYSPSGYDYWGQGTQVTVSSGGGGSGGGGSGGGGSQVQLVQSGGGLVQAGGSLRLSCAASVRFFSINTMGWYRQAPGKQRELVADITSSGSTNYADSGKGRFTISRDNAKNTVYLQMNRLKPEDTAVYYCHADYKYTTHNTAWGQGTQVTVSSLEHHHHHH . Value?
Result: 8.99 -log10 M
